Cited source: patent US8946234B2

test: physchem; assay type: physicochemical
logP reference
readout-label: logP

INSERT INTO measurements (compound, result) VALUES
  ('CSc1c(Br)cc(NC(=O)c2c(C(F)(F)F)c(C(F)(F)C(F)(F)F)nn2C)cc1C(=O)NC1CC1 [Ik-198]', '3.87^a)'),
  ('CC(Oc1cc(C(F)(F)F)c(C(=O)Nc2ccc(Cl)c(C(=O)NC3CC3)c2)cn1)C(F)(F)F (stereo not shown) [Ij-2]', '3.32^a)'),
  ('O=C(NCC=CCl)c1cc(NC(=O)c2cnc(C(F)(F)C(F)(F)F)nc2C(F)F)ccc1Cl [Ib-32]', '3.29^a)'),
  ('CSc1c(F)cc(NC(=O)c2c(C(F)(F)F)c(C(F)(F)C(F)(F)F)nn2C)cc1C(=O)NC1CC1 [Ik-191]', '3.57^a)');

---

experiment: logP by HPLC on a C18 phase inversion column, EEC Directive 79/831 Annex V.A8, method b) (HP1100, 5-95% acetonitrile in 1.70 min); type: physicochemical; settings: HPLC method b)
logP reference
readout-label: logP

INSERT INTO results (compound, readout_label, result) VALUES
  ('Cn1nc(C(F)(F)C(F)(F)F)c(C(F)(F)F)c1C(=O)Nc1ccc(Cl)c(C(=O)NC(C)(C)C#N)c1 [Ik-274]', 'logP', '3.37^b)'),
  ('Cn1nc(C(F)(F)C(F)(F)F)c(C(F)(F)F)c1C(=O)Nc1ccc(Cl)c(C(=O)NCC#N)c1 [Ik-48]', 'logP', '2.93^b)'),
  ('CN(C(=O)c1cc(NC(=O)c2c(C(F)(F)F)c(C(F)(F)C(F)(F)F)nn2C)ccc1Cl)C1CC1 [Ik-31]', 'logP', '3.51^b)'),
  ('CCC1CC1NC(=O)c1cc(NC(=O)c2c(C(F)(F)F)c(C(F)(F)C(F)(F)F)nn2C)ccc1Cl (centres unmarked) [Ik-286]', 'logP', '3.84^b)'),
  ('Cn1nc(C(F)(F)C(F)(F)F)c(C(F)(F)F)c1C(=O)Nc1ccc(Cl)c(C(=O)NCc2ccc(F)c(F)c2)c1 [Ik-309]', 'logP', '3.94^b)'),
  ('CC(NC(=O)c1cc(NC(=O)c2c(C(F)(F)F)c(C(F)(F)C(F)(F)F)nn2C)ccc1Cl)c1ccccc1 (centres unmarked) [Ik-38]', 'logP', '3.89^b)'),
  ('CCOCCNC(=O)c1cc(NC(=O)c2c(C(F)(F)F)c(C(F)(F)C(F)(F)F)nn2C)ccc1Cl [Ik-53]', 'logP', '3.28^b)'),
  ('CC(C#N)NC(=O)c1cc(NC(=O)c2c(C(F)(F)F)c(C(F)(F)C(F)(F)F)nn2C)ccc1Cl (centres unmarked) [Ik-292]', 'logP', '3.02^b)'),
  ('COC(=O)CNC(=O)c1cc(NC(=O)c2c(C(F)(F)F)c(C(F)(F)C(F)(F)F)nn2C)ccc1Cl [Ik-34]', 'logP', '3.04^b)'),
  ('Cn1nc(C(F)(F)C(F)(F)F)c(C(F)(F)F)c1C(=O)Nc1ccc(Cl)c(C(=O)NC(C)(C)CS(C)(=O)=O)c1 [Ik-301]', 'logP', '3.02^b)'),
  ('Cn1nc(C(F)(F)C(F)(F)F)c(C(F)(F)F)c1C(=O)Nc1ccc(Cl)c(C(=O)NCC(C)(C)CF)c1 [Ik-42]', 'logP', '3.68^b)'),
  ('CC(NC(=O)c1cc(NC(=O)c2c(C(F)(F)F)c(C(F)(F)C(F)(F)F)nn2C)ccc1Cl)C1(Cl)CC1 (centres unmarked) [Ik-288]', 'logP', '4.05^b)'),
  ('CC(NC(=O)c1cc(NC(=O)c2c(C(F)(F)F)c(C(F)(F)C(F)(F)F)nn2C)ccc1Cl)c1ccccc1F (centres unmarked) [Ik-284]', 'logP', '4.00^b)'),
  ('Cn1nc(C(F)(F)C(F)(F)F)c(C(F)(F)F)c1C(=O)Nc1ccc(Cl)c(C(=O)NCc2ccc(F)cc2F)c1 [Ik-308]', 'logP', '3.94^b)'),
  ('C#CC(C)NC(=O)c1cc(NC(=O)c2c(C(F)(F)F)c(C(F)(F)C(F)(F)F)nn2C)ccc1Cl (centres unmarked) [Ik-293]', 'logP', '3.28^b)'),
  ('Cn1nc(C(F)(F)C(F)(F)F)c(C(F)(F)F)c1C(=O)Nc1ccc(Cl)c(C(=O)NCc2ccon2)c1 [Ik-43]', 'logP', '3.02^b)'),
  ('Cn1nc(C(F)(F)C(F)(F)F)c(C(F)(F)F)c1C(=O)Nc1ccc(Cl)c(C(=O)NCC2(C)COC2)c1 [Ik-45]', 'logP', '2.98^b)'),
  ('Cn1nc(C(F)(F)C(F)(F)F)c(C(F)(F)F)c1C(=O)Nc1ccc(Cl)c(C(=O)NC2CC2F)c1 (centres unmarked) [Ik-311]', 'logP', '3.28^b)'),
  ('Cn1nc(C(F)(F)C(F)(F)F)c(C(F)(F)F)c1C(=O)Nc1ccc(Cl)c(C(=O)NCCOCC(F)(F)F)c1 [Ik-281]', 'logP', '3.53^b)'),
  ('C[C@@H](NC(=O)c1cc(NC(=O)c2c(C(F)(F)F)c(C(F)(F)C(F)(F)F)nn2C)ccc1Cl)C(F)(F)F [Ik-307]', 'logP', '3.78^b)'),
  ('C=C(C)CNC(=O)c1cc(NC(=O)c2c(C(F)(F)F)c(C(F)(F)C(F)(F)F)nn2C)ccc1Cl [Ik-50]', 'logP', '3.53^b)'),
  ('CCCC(NC(=O)c1cc(NC(=O)c2c(C(F)(F)F)c(C(F)(F)C(F)(F)F)nn2C)ccc1Cl)C(F)(F)F (centres unmarked) [Ik-298]', 'logP', '4.11^b)'),
  ('CC(O)CNC(=O)c1cc(NC(=O)c2c(C(F)(F)F)c(C(F)(F)C(F)(F)F)nn2C)ccc1Cl (centres unmarked) [Ik-33]', 'logP', '2.65^b)'),
  ('Cn1nc(C(F)(F)C(F)(F)F)c(C(F)(F)F)c1C(=O)Nc1ccc(Cl)c(C(=O)NC(C)(C)CC(F)(F)F)c1 [Ik-300]', 'logP', '4.00^b)'),
  ('CC(CC(F)(F)F)NC(=O)c1cc(NC(=O)c2c(C(F)(F)F)c(C(F)(F)C(F)(F)F)nn2C)ccc1Cl (centres unmarked) [Ik-299]', 'logP', '3.63^b)'),
  ('Cc1ccccc1CNC(=O)c1cc(NC(=O)c2c(C(F)(F)F)c(C(F)(F)C(F)(F)F)nn2C)ccc1Cl [Ik-305]', 'logP', '3.89^b)'),
  ('Cn1nc(C(F)(F)C(F)(F)F)c(C(F)(F)F)c1C(=O)Nc1ccc(Cl)c(C(=O)NC2CC2(F)F)c1 (centres unmarked) [Ik-6]', 'logP', '3.33^b)'),
  ('Cn1nc(C(F)(F)C(F)(F)F)c(C(F)(F)F)c1C(=O)Nc1ccc(Cl)c(C(=O)NCc2cc(F)ccc2F)c1 [Ik-54]', 'logP', '3.84^b)'),
  ('Cn1nc(C(F)(F)C(F)(F)F)c(C(F)(F)F)c1C(=O)Nc1ccc(Cl)c(C(=O)NC(C2CC2)C2CC2)c1 [Ik-61]', 'logP', '4.00^b)');

---

Assay: physchem
Format: physicochemical
Protocol: ^a) Note regarding the determination of the log P values and mass detection: The log P values given were determined in accordance with EEC Directive 79/831 Annex V.A8 by HPLC (High Performance Liquid Chromatography) on a phase inversion column (C18). […]
readout-label: logP

INSERT INTO results (molecule, readout_label, result) VALUES
  ('Cn1nc(C(F)(F)C(F)(F)F)c(C(F)(F)F)c1C(=O)Nc1cc(F)cc(C(=O)NCc2ccccc2)c1 [Ik-162]', 'logP', '4.05^a)'),
  ('Cn1nc(C(F)(F)C(F)(F)F)c(C(F)(F)F)c1C(=O)Nc1cc(Br)c(Br)c(C(=O)NCC(F)(F)F)c1 [Ik-209]', 'logP', '4.18^a)'),
  ('O=C(NCC=CCl)c1cc(NC(=O)c2ncc(C(F)(F)F)cc2Cl)ccc1Cl [Ii-4]', 'logP', '2.93^a)'),
  ('Cn1nc(-c2ccc(C(F)(F)F)cc2)c(Br)c1C(=O)Nc1ccc(Cl)c(C(=O)NC2CC2)c1 [Ik-249]', 'logP', '3.63^a)');

---

Experiment: physchem
Assay type: physicochemical
Method: ^a) Note regarding the determination of the log P values and mass detection: The log P values given were determined in accordance with EEC Directive 79/831 Annex V.A8 by HPLC (High Performance Liquid Chromatography) on a phase inversion column (C18). […]
logP reference
readout-label: logP

INSERT INTO results (sample_smiles, result) VALUES
  ('CC#CC(C)(C)NC(=O)c1cc(NC(=O)c2c(C(F)(F)F)c(C(F)(F)C(F)(F)F)nn2C)ccc1Cl', '4.03^a)'),
  ('Cn1nc(C(F)(F)F)c(I)c1C(=O)Nc1ccc(Cl)c(C(=O)NC2CC2)c1', '2.70^a)'),
  ('Cn1nc(C(F)(F)F)c(C(F)(F)F)c1C(=O)Nc1ccc(Cl)c(C(=O)NC2CC2)c1', '2.89^a)'),
  ('Cn1nc(C(F)(F)C(F)(F)F)c(C(F)(F)F)c1C(=O)Nc1cc(Cl)c(I)c(C(=O)NC2CC2)c1', '3.84^a)');
